# EXPERIMENTAL_TARGET: Melanocortin receptor 4 (Homo sapiens)
# EXPERIMENT_SUMMARY: cAMP stimulation in HEK293 cells transfected with human MC4R
Exercise: for every item that follows, state its recorded EC50.

Using the record for O=C(Cc1ccccc1)NCC1(N2CCN(C(=O)[C@@H](Cc3ccc(Cl)cc3)NC(=O)CC3Cc4ccccc4CN3)CC2)CCCCC1 (some centres undefined) , report its EC50.
37 nM

Next compound up: NC(Cc1ccccc1)C(=O)N[C@H](Cc1ccc(Cl)cc1)C(=O)N1CCN(C2(CNC(=O)Cc3ccccc3)CCCCC2)CC1 (some centres undefined)
420 nM

Next compound up: O=C(Cc1ccccc1)NCC1(N2CCN(C(=O)[C@@H](Cc3ccc(Cl)cc3)NC(=O)C3NCc4ccccc43)CC2)CCCCC1 (some centres undefined)
440 nM

Next compound up: NC1(C(=O)N[C@H](Cc2ccc(Cl)cc2)C(=O)N2CCN(C3(CNC(=O)Cc4ccccc4)CCCCC3)CC2)CCc2ccccc21 (some centres undefined)
810 nM

Next compound up: O=C(Cc1ccccc1)NCC1(N2CCN(C(=O)[C@@H](Cc3ccc(Cl)cc3)NC(=O)C3Cc4ccccc4N3)CC2)CCCCC1 (some centres undefined)
360 nM

Next compound up: `O=C(Cc1ccccc1)NCC1(N2CCN(C(=O)[C@@H](Cc3ccc(Cl)cc3)NC(=O)[C@@H]3Cc4ccccc4CN3)CC2)CCCCC1`
46 nM

Next compound up: `CN(C)CC(=O)N[C@H](Cc1ccc(Cl)cc1)C(=O)N1CCN(C2(CNC(=O)Cc3ccccc3)CCCCC2)CC1`
300 nM

Next compound up: NC(CC(=O)N[C@H](Cc1ccc(Cl)cc1)C(=O)N1CCN(C2(CNC(=O)Cc3ccccc3)CCCCC2)CC1)c1ccccc1 (some centres undefined)
270 nM

Next compound up: NC(Cc1ccncc1)C(=O)N[C@H](Cc1ccc(Cl)cc1)C(=O)N1CCN(C2(CNC(=O)Cc3ccccc3)CCCCC2)CC1 (some centres undefined)
590 nM

Next compound up: NC1(C(=O)N[C@H](Cc2ccc(Cl)cc2)C(=O)N2CCN(C3(CNC(=O)Cc4ccccc4)CCCCC3)CC2)CCc2ccccc2C1 (some centres undefined)
160 nM

Next compound up: NC(C(=O)N[C@H](Cc1ccc(Cl)cc1)C(=O)N1CCN(C2(CNC(=O)Cc3ccccc3)CCCCC2)CC1)c1ccccc1 (some centres undefined)
530 nM

Next compound up: `O=C(Cc1ccccc1)NCC1(N2CCN(C(=O)[C@@H](Cc3ccc(Cl)cc3)NC(=O)[C@H]3Cc4ccccc4CN3)CC2)CCCCC1`
33 nM

Next compound up: `NC1(C(=O)N[C@H](Cc2ccc(Cl)cc2)C(=O)N2CCN(C3(CNC(=O)Cc4ccccc4)CCCCC3)CC2)Cc2ccccc2C1`
280 nM

Next compound up: `CC(C)(C)CC(=O)N[C@H](Cc1ccc(Cl)cc1)C(=O)N1CCN(C2(CNC(=O)Cc3ccccc3)CCCCC2)CC1`
570 nM

---

Below are Ki values recorded for Melanocortin receptor 4 (Homo sapiens, UniProt P32245).
// units = nM; emit number, no label

Using the record for `CC(=O)N[C@H](Cc1ccc(Cl)cc1)C(=O)N1CCN(C2(CNC(=O)Cc3ccccc3)CCCCC2)CC1` , report its Ki.
110

Next compound up: `CN(C)CC(=O)N[C@H](Cc1ccc(Cl)cc1)C(=O)N1CCN(C2(CNC(=O)Cc3ccccc3)CCCCC2)CC1`
100

Next compound up: `NC1(C(=O)N[C@H](Cc2ccc(Cl)cc2)C(=O)N2CCN(C3(CNC(=O)Cc4ccccc4)CCCCC3)CC2)Cc2ccccc2C1`
140

Next compound up: NC(C(=O)N[C@H](Cc1ccc(Cl)cc1)C(=O)N1CCN(C2(CNC(=O)Cc3ccccc3)CCCCC2)CC1)c1ccccc1 (stereo partly specified)
79

Next compound up: `O=C(Cc1ccccc1)NCC1(N2CCN(C(=O)[C@@H](Cc3ccc(Cl)cc3)NC(=O)Cc3ccccc3F)CC2)CCCCC1`
180

Next compound up: NC1(C(=O)N[C@H](Cc2ccc(Cl)cc2)C(=O)N2CCN(C3(CNC(=O)Cc4ccccc4)CCCCC3)CC2)CCc2ccccc2C1 (stereo partly specified)
82

---

# EXPERIMENTAL_TARGET: Melanocortin receptor 4 (Homo sapiens, UniProt P32245)
# Sequence (P32245 whole entry): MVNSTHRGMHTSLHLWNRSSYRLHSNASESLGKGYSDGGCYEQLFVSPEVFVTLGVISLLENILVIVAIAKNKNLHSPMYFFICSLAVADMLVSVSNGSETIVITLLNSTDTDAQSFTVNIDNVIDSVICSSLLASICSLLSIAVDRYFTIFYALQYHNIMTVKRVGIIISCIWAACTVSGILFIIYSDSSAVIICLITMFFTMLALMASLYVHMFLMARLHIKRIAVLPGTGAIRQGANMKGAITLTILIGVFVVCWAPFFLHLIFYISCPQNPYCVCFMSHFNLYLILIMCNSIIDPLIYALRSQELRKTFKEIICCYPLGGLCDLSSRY
# EXPERIMENT_SUMMARY: cAMP stimulation in HEK293 cells transfected with human MC4R
# Type: functional, cell-based
Threshold check on Emax: at or above 50% gives 1.0, strictly below gives 0.0.

Could you verify whether the entry O=C(Cc1ccccc1)NCC1(N2CCN(C(=O)[C@@H](Cc3ccc(Cl)cc3)NC(=O)C3NCc4ccccc43)CC2)CCCCC1 (some centres undefined) shows Emax of no less than 50%?
0.0

Next compound up: NC(Cc1ccccc1)C(=O)N[C@H](Cc1ccc(Cl)cc1)C(=O)N1CCN(C2(CNC(=O)Cc3ccccc3)CCCCC2)CC1 (some centres undefined)
1.0

Next compound up: NC(Cc1ccncc1)C(=O)N[C@H](Cc1ccc(Cl)cc1)C(=O)N1CCN(C2(CNC(=O)Cc3ccccc3)CCCCC2)CC1 (some centres undefined)
1.0

Next compound up: `CN(C)CC(=O)N[C@H](Cc1ccc(Cl)cc1)C(=O)N1CCN(C2(CNC(=O)Cc3ccccc3)CCCCC2)CC1`
1.0

Next compound up: NC(C(=O)N[C@H](Cc1ccc(Cl)cc1)C(=O)N1CCN(C2(CNC(=O)Cc3ccccc3)CCCCC2)CC1)c1ccccc1 (some centres undefined)
0.0

Next compound up: O=C(Cc1ccccc1)NCC1(N2CCN(C(=O)[C@@H](Cc3ccc(Cl)cc3)NC(=O)CC3Cc4ccccc4CN3)CC2)CCCCC1 (some centres undefined)
1.0

Next compound up: `O=C(Cc1ccccc1)NCC1(N2CCN(C(=O)[C@@H](Cc3ccc(Cl)cc3)NC(=O)[C@H]3Cc4ccccc4CN3)CC2)CCCCC1`
1.0

Next compound up: NC1(C(=O)N[C@H](Cc2ccc(Cl)cc2)C(=O)N2CCN(C3(CNC(=O)Cc4ccccc4)CCCCC3)CC2)CCc2ccccc2C1 (some centres undefined)
1.0

Next compound up: NC(CC(=O)N[C@H](Cc1ccc(Cl)cc1)C(=O)N1CCN(C2(CNC(=O)Cc3ccccc3)CCCCC2)CC1)c1ccccc1 (some centres undefined)
1.0

Next compound up: O=C(Cc1ccccc1)NCC1(N2CCN(C(=O)[C@@H](Cc3ccc(Cl)cc3)NC(=O)C3Cc4ccccc4N3)CC2)CCCCC1 (some centres undefined)
0.0

Next compound up: `CC(C)(C)CC(=O)N[C@H](Cc1ccc(Cl)cc1)C(=O)N1CCN(C2(CNC(=O)Cc3ccccc3)CCCCC2)CC1`
0.0

Next compound up: `O=C(Cc1ccccc1)NCC1(N2CCN(C(=O)[C@@H](Cc3ccc(Cl)cc3)NC(=O)[C@@H]3Cc4ccccc4CN3)CC2)CCCCC1`
1.0

---

Below are pKi values recorded for Melanocortin receptor 4 (Homo sapiens, UniProt P32245).
In plain terms, pKi is the concentration in mol/L turned into minus its base-10 logarithm.

Tell me reported pKi for `CCC(=O)N[C@H](Cc1ccc(Cl)cc1)C(=O)N1CCN(C2(CNC(=O)Cc3ccccc3)CCCCC2)CC1` , tested with Melanocortin receptor 4 (Homo sapiens, UniProt P32245).
6.80

Next molecule up: `O=C(Cc1ccccc1)NCC1(N2CCN(C(=O)[C@@H](Cc3ccc(Cl)cc3)NC(=O)[C@H]3Cc4ccccc4CN3)CC2)CCCCC1`
7.80

Next molecule up: O=C(Cc1ccccc1)NCC1(N2CCN(C(=O)[C@@H](Cc3ccc(Cl)cc3)NC(=O)CC3Cc4ccccc4CN3)CC2)CCCCC1 (some centres not stated)
7.80

Next molecule up: NC(Cc1ccncc1)C(=O)N[C@H](Cc1ccc(Cl)cc1)C(=O)N1CCN(C2(CNC(=O)Cc3ccccc3)CCCCC2)CC1 (some centres not stated)
6.92

Next molecule up: NC1(C(=O)N[C@H](Cc2ccc(Cl)cc2)C(=O)N2CCN(C3(CNC(=O)Cc4ccccc4)CCCCC3)CC2)CCc2ccccc21 (some centres not stated)
6.59

Next molecule up: `O=C(Cc1ccccc1)NCC1(N2CCN(C(=O)[C@@H](Cc3ccc(Cl)cc3)NC(=O)c3cccnc3)CC2)CCCCC1`
7.22

Next molecule up: NC(Cc1ccccc1)C(=O)N[C@H](Cc1ccc(Cl)cc1)C(=O)N1CCN(C2(CNC(=O)Cc3ccccc3)CCCCC2)CC1 (some centres not stated)
6.89

These entries and their values trace back to ChEMBL document CHEMBL1141939.
